Test system: U2OS
assayText: Multiplex assay against U2OS
Format: toxicity, cell-based
conditionNotes: human, 24 h, 1 µM, compound concentration 1 uM, replicate 2
propertyLabel: Total Cell Count
Answer with the value's number alone.

The observed Total Cell Count for `C=CC(=O)Nc1ccc2[nH]c(=O)n(C3CCN(Cc4ccc(-c5nc6cc[nH]c(=O)c6cc5-c5ccccc5)cc4)CC3)c2c1` when tested with U2OS stands at 137

Entry CCc1nn(CCCN2CCN(c3cccc(Cl)c3)CC2)c(=O)n1CCOc1ccccc1.Cl [NEFAZODONE HYDROCHLORIDE] ; assay system U2OS; Total Cell Count recorded at 71

The recorded Total Cell Count with U2OS for `C[C@]12CC[C@@H]3c4ccc(O)cc4CC[C@H]3[C@@H]1CC[C@@H]2O` was 82

# lookup: `CC(C)Oc1ccccc1C(=O)Nc1ccccc1C(=O)Nc1cccc(S(=O)(=O)C(F)(F)F)c1` on U2OS, Total Cell Count = 57

* * *

Test system: Fibroblast
assayText: Multiplex assay against human fibroblast
Format: toxicity, cell-based
conditionNotes: 12 h, 10 µM, compound concentration 10 uM, replicate 2
Task for the reader: assign each of the following compounds its reported Population Normal (%).
Respond numerically; units are % and should not be typed.

# Population Normal (%) (compound: C[C@]12CC[C@@H]3c4ccc(O)cc4CC[C@H]3[C@@H]1CC[C@@H]2O [ESTRADIOL] ) is 91

Looking up COc1ccc(-c2ccc3ncc4c(c3c2)n(-c2ccc(N3CCNCC3)c(C(F)(F)F)c2)c(=O)n4C)cn1.O=C(O)/C=C\C(=O)O [BGT-226] , I found its Population Normal (%) recorded as 37

The reported value for CCc1nn(CCCN2CCN(c3cccc(Cl)c3)CC2)c(=O)n1CCOc1ccccc1.Cl [NEFAZODONE HYDROCHLORIDE] in terms of Population Normal (%) is 96

Lab note: `CNC(=O)Nc1ccc(-c2nc(N3CC4CCC(C3)O4)c3cnn(C4CCC5(CC4)OCCO5)c3n2)cc1` gave Population Normal (%) of 93

* * *

Test system: Fibroblast
assayText: Multiplex assay against human fibroblast
Format: toxicity, cell-based
conditionNotes: 48 h, 10 µM, compound concentration 10 uM, replicate 1
Would you mind telling me the reported Population Mitochondria Different-Phenotype (%) of each entry?
A number alone suffices; assume %.

For `CN1CCN(Cc2ccc(Nc3ncc(Cl)c(Nc4ccccc4S(=O)(=O)N(C)C)n3)cc2)CC1` the molecule record lists Population Mitochondria Different-Phenotype (%) as 21

Population Mitochondria Different-Phenotype (%) for `O=c1cc(N2CCOCC2)oc2c(-c3cccc4c3sc3ccccc34)cccc12` is 37

Note to self: Population Mitochondria Different-Phenotype (%) recorded for `COc1ccc(-c2ccc3ncc4c(c3c2)n(-c2ccc(N3CCNCC3)c(C(F)(F)F)c2)c(=O)n4C)cn1.O=C(O)/C=C\C(=O)O` was 4

Short answer for `CC(C)Oc1ccccc1C(=O)Nc1ccccc1C(=O)Nc1cccc(S(=O)(=O)C(F)(F)F)c1` : Population Mitochondria Different-Phenotype (%) was 46

So for `CCc1ccc(OCc2ccccc2C(=O)Nc2ccc3nc(C)cc(N)c3c2)cc1.Cl` , the logged Population Mitochondria Different-Phenotype (%) turned out to be 68

Reported Population Mitochondria Different-Phenotype (%) of Cc1cccc(CN2CCN(C(c3ccccc3)c3ccc(Cl)cc3)CC2)c1.Cl.Cl (stereo not drawn) : 25

The reported Population Mitochondria Different-Phenotype (%) of the molecule COc1cc2ncn(-c3cc(OCc4ccccc4C(F)(F)F)c(C(N)=O)s3)c2cc1OC [GW843682X] was 13

Lab note: measured Population Mitochondria Different-Phenotype (%) of `CC(C)OC(=O)N1CCC(Oc2ncnc3c2cnn3-c2ccc(S(C)(=O)=O)cc2F)CC1` was 14

* * *

Assignment: determine reported Population Normal (%) for the given compounds.
System: Fibroblast
assayText: Multiplex assay against human fibroblast
Assay type: toxicity, cell-based
conditionNotes: 24 h, 10 µM, compound concentration 10 uM, replicate 1
Give the quantity in %, number only.

Summary for this compound, CNC(=O)Nc1ccc2c(c1)[C@@]1(CC2)OC(=O)N(CC(=O)N(Cc2ccc(F)cc2)[C@@H](C)C(F)(F)F)C1=O [A-486] : Population Normal (%) is 85

Consider COc1ccccc1CN[C@H]1C2CCN(CC2)[C@H]1C(c1ccccc1)c1ccccc1 [CP-96345] . Its measured Population Normal (%) is 77

GET /value?item= C[C@]12CC[C@@H]3c4ccc(O)cc4CC[C@H]3[C@@H]1CC[C@@H]2O [ESTRADIOL] &field=Population Normal (%) returns 88

The compound CC(C)(C)NC[C@H](O)COc1nsnc1N1CCOCC1 [TIMOLOL] showed Population Normal (%) equal to 83

# Population Normal (%) of Cc1ccc2c(c1)c1c(n2CCc2ccc(C)nc2)CCN(C)C1 [LATREPIRDINE] = 71

# Population Normal (%) (compound: COc1cc2ncn(-c3cc(OCc4ccccc4C(F)(F)F)c(C(N)=O)s3)c2cc1OC [GW843682X] ) is 78

Entry C=CC(=O)Nc1ccc2[nH]c(=O)n(C3CCN(Cc4ccc(-c5nc6cc[nH]c(=O)c6cc5-c5ccccc5)cc4)CC3)c2c1 [Borussertib] ; Population Normal (%) = 76

compound O=C(c1cc2c(cc1F)OC(c1ccc(F)cc1)(c1ccc(Cl)cc1Cl)O2)N1CCOCC1 (stereo not drawn) , Population Normal (%) observed: 87

* * *

Test system: Fibroblast
assayText: Multiplex assay against human fibroblast
Format: toxicity, cell-based
conditionNotes: 24 h, 10 µM, compound concentration 10 uM, replicate 1
Threshold 50%: Population Tubulin-Different-Phenotype (%) strictly smaller gives fulfilled, otherwise not fulfilled.

Confirm or reject: Population Tubulin-Different-Phenotype (%) of O=C(c1cc2c(cc1F)OC(c1ccc(F)cc1)(c1ccc(Cl)cc1Cl)O2)N1CCOCC1 (configuration not stated) lies strictly below 50%
fulfilled

Strictly below 50% in Population Tubulin-Different-Phenotype (%)? `COc1ccc(-c2ccc3ncc4c(c3c2)n(-c2ccc(N3CCNCC3)c(C(F)(F)F)c2)c(=O)n4C)cn1.O=C(O)/C=C\C(=O)O`
not fulfilled

I'd appreciate it if you could check whether `CC(C)CC(=O)Nc1[nH]nc2c1CN(C(=O)C1CCN(C)CC1)C2(C)C` has Population Tubulin-Different-Phenotype (%) smaller than 50%.
fulfilled

Is Population Tubulin-Different-Phenotype (%) strictly under 50% for the entry `CC(C)c1noc(N2CCC(COc3ccc(-c4ccc(S(C)(=O)=O)cc4)nc3)CC2)n1` ?
not fulfilled

Field: below-cutoff. Rule: recorded Population Tubulin-Different-Phenotype (%) strictly less than 50%. Subject: `COC(=O)C1=C(C)NC(C)=C(C(=O)OCCCN2CCC(c3ccccc3)(c3ccccc3)CC2)[C@H]1c1cccc([N+](=O)[O-])c1`
not fulfilled

# strict comparison: is reported Population Tubulin-Different-Phenotype (%) < 50%? input = `C=CC(=O)Nc1ccc2[nH]c(=O)n(C3CCN(Cc4ccc(-c5nc6cc[nH]c(=O)c6cc5-c5ccccc5)cc4)CC3)c2c1`
fulfilled

Here's an entry: CCc1nn(CCCN2CCN(c3cccc(Cl)c3)CC2)c(=O)n1CCOc1ccccc1.Cl [NEFAZODONE HYDROCHLORIDE] . Is its Population Tubulin-Different-Phenotype (%) below 50%?
not fulfilled

* * *

Test system: U2OS
assayText: Multiplex assay against U2OS
Type: toxicity, cell-based
conditionNotes: human, 48 h, 1 µM, compound concentration 1 uM, replicate 1
Label T when Population Pyknosed Nuclei (%) is at or above 10%; anything below gets F.

Hello, I need to know if CC(C)c1noc(N2CCC(COc3ccc(-c4ccc(S(C)(=O)=O)cc4)nc3)CC2)n1 [GSK-1292263] has measured Population Pyknosed Nuclei (%) not below 10%. Thanks!
F

Quick check: does Cc1ccc2c(c1)c1c(n2CCc2ccc(C)nc2)CCN(C)C1 [LATREPIRDINE] have Population Pyknosed Nuclei (%) greater than or equal to 10%?
T

Check if Population Pyknosed Nuclei (%) >= 10% (inclusive). Item: `O=c1cc(N2CCOCC2)oc2c(-c3cccc4c3sc3ccccc34)cccc12`
T

Determine whether measured Population Pyknosed Nuclei (%) meets or exceeds 10% for `CNC(=O)Nc1ccc(-c2nc(N3CC4CCC(C3)O4)c3cnn(C4CCC5(CC4)OCCO5)c3n2)cc1`
T

Determine whether measured Population Pyknosed Nuclei (%) meets or exceeds 10% for `CCc1ccc(OCc2ccccc2C(=O)Nc2ccc3nc(C)cc(N)c3c2)cc1.Cl`
T

In plain terms: is recorded Population Pyknosed Nuclei (%) at least 10% for CC1=C(C(=O)Nc2cc3cn[nH]c3cc2F)C(c2ccc(C(F)(F)F)cc2)CC(=O)N1 (configuration not stated) ?
F

hey, is Population Pyknosed Nuclei (%) for this one >= 10%? CN1CCN(Cc2ccc(Nc3ncc(Cl)c(Nc4ccccc4S(=O)(=O)N(C)C)n3)cc2)CC1 [DUBERMATINIB]
T

Please indicate if the recorded Population Pyknosed Nuclei (%) for `COc1cc(Nc2nccc(-c3cnn4nc(OC)ccc34)n2)cc(C(F)(F)F)c1` meets or exceeds 10%.
T

In plain terms: is recorded Population Pyknosed Nuclei (%) at least 10% for `Cl.O=C(O)c1cc(-c2ccc(C3CCNCC3)cc2)c2ccc(-c3ccc(C(F)(F)F)cc3)cc2c1` ?
F

Can `CC(C)NC(=O)N1CC[C@H](NC2=Nc3cc(F)ccc3N(CC(F)F)c3ccc(Cl)cc32)C1` be said to have Population Pyknosed Nuclei (%) at or above 10%?
T

Is reported Population Pyknosed Nuclei (%) greater than or equal to 10% here: `CC(C)Oc1ccccc1C(=O)Nc1ccccc1C(=O)Nc1cccc(S(=O)(=O)C(F)(F)F)c1`
T

Test whether the compound CCc1nn(CCCN2CCN(c3cccc(Cl)c3)CC2)c(=O)n1CCOc1ccccc1.Cl [NEFAZODONE HYDROCHLORIDE] records Population Pyknosed Nuclei (%) of 10% or higher.
T

Determine whether measured Population Pyknosed Nuclei (%) meets or exceeds 10% for COC(=O)C1=C(C)NC(C)=C(C(=O)OCCCN2CCC(c3ccccc3)(c3ccccc3)CC2)[C@H]1c1cccc([N+](=O)[O-])c1 [NIGULDIPINE]
T

In plain terms: is recorded Population Pyknosed Nuclei (%) at least 10% for COc1ccccc1CN[C@H]1C2CCN(CC2)[C@H]1C(c1ccccc1)c1ccccc1 [CP-96345] ?
F

Given O=C(c1cc2c(cc1F)OC(c1ccc(F)cc1)(c1ccc(Cl)cc1Cl)O2)N1CCOCC1 (configuration not stated) , state whether its Population Pyknosed Nuclei (%) is at least 10%.
F

Threshold query (Population Pyknosed Nuclei (%) >= 10%) on Cc1cccc(CN2CCN(C(c3ccccc3)c3ccc(Cl)cc3)CC2)c1.Cl.Cl (configuration not stated)
F

In plain terms: is recorded Population Pyknosed Nuclei (%) at least 10% for COc1cc2ncn(-c3cc(OCc4ccccc4C(F)(F)F)c(C(N)=O)s3)c2cc1OC [GW843682X] ?
T
